# Lookup of reported pIC50 keyed by entry
# system-name: human aldehyde reductase (hALR1) (Homo sapiens, UniProt P14550)
# Sequence (P14550 whole entry): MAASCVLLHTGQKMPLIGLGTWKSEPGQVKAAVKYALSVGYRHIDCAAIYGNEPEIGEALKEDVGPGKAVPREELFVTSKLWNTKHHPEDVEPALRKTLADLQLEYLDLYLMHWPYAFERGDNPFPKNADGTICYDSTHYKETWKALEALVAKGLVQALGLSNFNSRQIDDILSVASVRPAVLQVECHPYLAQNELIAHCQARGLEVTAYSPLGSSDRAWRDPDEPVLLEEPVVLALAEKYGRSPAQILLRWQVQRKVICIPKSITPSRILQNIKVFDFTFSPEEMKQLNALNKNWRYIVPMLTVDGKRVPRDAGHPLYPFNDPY
# measurement-description: Inhibition of human aldehyde reductase (hALR1), methods of Ishii et al.
# Type: biochemical
# experimental-context: read-out: HALR1 (IC50)
pIC50: −log10 of the molar value.
measurement-label: pIC50

# smiles-repr, system-name, qualifier-symbol, measurement
data = [
    ("O=C(O)Cn1cc(Cc2nc3c(F)c(F)cc(F)c3s2)c2ccc(N3CCOCC3)cc21", "human aldehyde reductase (hALR1) (Homo sapiens, UniProt P14550)", "<", 4.00),
    ("O=C(O)Cn1cc(Cc2cccc([N+](=O)[O-])c2)c2ccccc21", "human aldehyde reductase (hALR1) (Homo sapiens, UniProt P14550)", "=", 4.89),
]
